Provide the recorded MIC for the entries that follow.
System: Proteus Vulc. ATCC 881
Assay: M.I.C. in vitro, gram- Proteus Vulc. (Table 1)
Format: cell-based
Details: +10% serum; read-out: M.I.C.
Returns: string containing the numeric result and its unit.

Please review the entries below; each comes with its answer.
{"Molecule": "CCCCCCCCCC[N+](CC)(CC)CCNC(=O)C12CC3CC(CC(C3)C1)C2 [Example 9]", "System tested": "Proteus Vulc. ATCC 881", "MIC": "100 µg/mL"}
{"Molecule": "CCCCCCCCCC[N+](C)(C)CCOC(=O)C12CC3CC(CC(C3)C1)C2 (single isomer, unassigned) [Example 1]", "System tested": "Proteus Vulc. ATCC 881", "MIC": "50 µg/mL"}
{"Molecule": "CCCCCCCCCCCC[N+](C)(C)CCNC(=O)C12CC3CC(CC(C3)C1)C2 [Example 8]", "System tested": "Proteus Vulc. ATCC 881", "MIC": "100 µg/mL"}
{"Molecule": "CCCCCCCCCCCC[N+](CC)(CC)CCNC(=O)C12CC3CC(CC(C3)C1)C2 [Example 12]", "System tested": "Proteus Vulc. ATCC 881", "MIC": "100 µg/mL"}

Noted for CCCCCCCCCC[N+](CC)(CC)CCOC(=O)C12CC3CC(CC(C3)C1)C2 [Example 5] : its MIC reads 100 µg/mL
